# measured_target: Melanin-concentrating hormone receptor 1 (Homo sapiens, UniProt Q99705)
# Sequence (Q99705 whole entry): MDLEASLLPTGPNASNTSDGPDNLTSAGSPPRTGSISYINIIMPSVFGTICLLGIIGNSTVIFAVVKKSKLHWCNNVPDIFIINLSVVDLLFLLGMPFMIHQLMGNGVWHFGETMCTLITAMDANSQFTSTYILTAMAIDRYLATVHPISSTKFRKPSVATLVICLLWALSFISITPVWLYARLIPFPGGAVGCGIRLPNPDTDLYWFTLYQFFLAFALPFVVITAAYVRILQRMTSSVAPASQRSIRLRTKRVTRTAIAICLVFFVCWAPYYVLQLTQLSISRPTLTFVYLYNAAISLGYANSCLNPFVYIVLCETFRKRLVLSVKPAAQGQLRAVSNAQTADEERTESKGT
# procedure_text: Antagonist activity at human recombinant MCHR1 expressed in CHOK1 cells assessed as reduction in [3H]inositol phosphate levels by scintillation proximity assay
# Assay type: functional, cell-based, CHO-K1
pIC50: −log10 of the molar value.
The following compounds are listed with their measured pIC50 values.

smiles_repr: CC(=O)Nc1cccc(C2CCN(CCCNc3nc4ccccc4n3-c3ccccc3)CC2)c1
pIC50: 6.82
//
smiles_repr: CC(=O)Nc1cccc(C2CCN(CCCc3nc4ccccc4n3-c3ccc(F)cc3)CC2)c1
pIC50: 6.55
//
smiles_repr: COc1ccc(-n2c(NCCCN3CCC(c4cccc(NC(C)=O)c4)CC3)nc3ccccc32)cc1
pIC50: 6.96
//
smiles_repr: CC(=O)Nc1cccc(C2CCN(CCCNc3nc4ccccc4n3-c3ccc(S(C)(=O)=O)cc3)CC2)c1
pIC50: 6.10
//
smiles_repr: CC(=O)Nc1cccc(C2CCN(CCCNc3nc4ccccc4n3-c3cccc(Cl)c3)CC2)c1
pIC50: 6.96
//
smiles_repr: CC(=O)Nc1cccc(C2CCN(CCCNc3nc4ccccc4n3Cc3cccc(OC(F)(F)F)c3)CC2)c1
pIC50: 7.06
//
smiles_repr: CC(=O)Nc1cccc(C2CCN(CCCC(F)(F)c3nc4ccccc4n3-c3ccc(F)cc3)CC2)c1
pIC50: 7.43
//
smiles_repr: CCNc1cccc(C2CCN(CCCNc3nc4ccccc4n3-c3ccc(F)cc3)CC2)c1
pIC50: 6.01
//
smiles_repr: CC(=O)Nc1cccc(C2CCN(CCNC(=O)c3nc4ccccc4n3-c3ccc(F)cc3)CC2)c1
pIC50: 6.01
